The reported numbers originate from ChEMBL document CHEMBL1201862.

- System: SW-620
- Procedure summary: NCI tumour cell line growth inhibition, 48 h
The source made the active and inactive calls. No stated cut-off is given here; in the data, active = GI50 up to about 1.1 µM and inactive = higher. Where a SMILES comes first, the peptide text is derived from it. [ ]: non-standard residue; d: D form. The star is where a group is joined. ξ: configuration not given here. ξF = NC(Cc1ccccc1)C(=O)O; Cbz = O=C(OCc1ccccc1)*; Aib = CC(C)(N)C(=O)O; NHNH2 = NN*
Possible outcomes: active, inactive

Compound | Study system | Assigned label
CCCCCCCCCCc1c2nc(c(CCCCCCCCCC)c3ccc([nH]3)c(CCCCCCCCCC)c3nc(c(CCCCCCCCCC)c4ccc1[nH]4)C=C3)C=C2 | SW-620 | inactive
Cc1ccc2cc3c(ccc4ccccc43)c3c2c1CC3 | SW-620 | inactive
O=C1CSC2(CC(/C=C/C=C/c3ccccc3)=NN2c2cccc(S(=O)(=O)O)c2)N1c1nc2ccccc2s1 (stereo not drawn) | SW-620 | inactive
CCOc1ccccc1/C=C(/C#N)C(N)=O | SW-620 | inactive
CS(=O)(=O)CSCSSCS(C)(=O)=O | SW-620 | inactive
CCC1=C(CC2NCCc3ccccc32)CC2c3cc(OC)c(OC)cc3CCN2C1 (stereo not drawn) | SW-620 | active
O=C(CNc1ccc(Cl)cc1Cl)Nn1c(-c2ccccc2)nc2ccccc2c1=O | SW-620 | inactive
COc1cccc(NC(=O)C(=O)C(C(=O)c2ccccc2F)C2OC(=O)c3ccccc32)c1 (stereo not drawn) | SW-620 | inactive
CC(=O)OCCOCn1c2c(c(=S)[nH]c1=O)CCC2 | SW-620 | inactive
COc1ccc2c(c1)CCN1CCCc3ccccc3C21 (stereo not drawn) | SW-620 | inactive
O=C(c1ccccc1)C(c1ccccc1)C1(O)C(=O)Nc2ccccc21 (stereo not drawn) | SW-620 | inactive
CN1CCc2c(sc3ncn(Nc4ccc(F)cc4)c(=N)c23)C1 | SW-620 | inactive
CC(=O)OC1(C#N)CC2OC1C1N=NN(C(=O)OC(C)(C)C)C21 (stereo not drawn) | SW-620 | inactive
CC(C)(NC(=O)OCc1ccccc1)C(=O)NC(Cc1ccccc1)C(=O)NN (stereo not drawn) (Cbz-[Aib]-[ξF]-NHNH2) | SW-620 | inactive
CC(C)(C)OC(=O)n1cc(C2CN(O)C(=O)C23CCC(=O)N3Cc2ccccc2)c2ccccc21 (stereo not drawn) | SW-620 | inactive
COc1cc(/C=C/C(=O)CC(=O)/C=C/c2ccc(OC(=O)CCCCC3CCSS3)c(OC)c2)ccc1OC(=O)CCCCC1CCSS1 (stereo not drawn) | SW-620 | inactive
N#CC(/C(=N/NC(=O)C(=O)NN)C(=O)Nc1nc([N+](=O)[O-])cs1)c1ccc(Cl)cc1 (stereo not drawn) | SW-620 | inactive
Cc1nc(=O)[nH]c2[nH][nH]c(=O)c12 | SW-620 | inactive
